Assay: in vitro
Assay type: in vitro ADME
Details: human, Caco-2
metric: Papp A→B at 90 min

[
  {
    "smilesInput": "CCCCC(=O)Nc1ncnn2c([C@]3(C#N)O[C@H](COC(=O)CC4CCCCC4)[C@@H](O)[C@H]3O)ccc12",
    "Papp A→B at 90 min": "1.7 ×10⁻⁶ cm/s"
  }
]

Tell me its Papp A→B at 90 min given CC(C)[C@H](N)C(=O)OC[C@H]1O[C@@](C#N)(c2ccc3c(NC(=O)[C@@H](N)Cc4ccc(F)cc4)ncnn23)[C@H](O)[C@@H]1O as the entry.
0.07 ×10⁻⁶ cm/s

Tell me its Papp A→B at 90 min given CC(C)C(=O)Nc1ncnn2c([C@]3(C#N)O[C@H](COC(=O)CC4CCCCC4)[C@@H](OC(=O)[C@@H](N)C(C)C)[C@H]3O)ccc12 as the entry.
1.9 ×10⁻⁶ cm/s

Tell me its Papp A→B at 90 min given CC1(CC(=O)OC[C@H]2O[C@@](C#N)(c3ccc4c(N)ncnn34)[C@H](O)[C@@H]2O)CCCCC1 as the entry.
3.7 ×10⁻⁶ cm/s

Tell me its Papp A→B at 90 min given CC(C)C(=O)OC[C@H]1O[C@@](C#N)(c2ccc3c(NC(=O)[C@@H](N)Cc4ccc(F)cc4)ncnn23)[C@H](O)[C@@H]1O as the entry.
0.03 ×10⁻⁶ cm/s

Tell me its Papp A→B at 90 min given CC(C)CC(=O)OC[C@H]1O[C@@](C#N)(c2ccc3c(N)ncnn23)[C@H](O)[C@@H]1OCOC(=O)C(C)(C)C as the entry.
8.1 ×10⁻⁶ cm/s

Tell me its Papp A→B at 90 min given CC(=O)N[C@H](C(=O)OC[C@H]1O[C@@](C#N)(c2ccc3c(N)ncnn23)[C@H](O)[C@@H]1OC(=O)CC1CCCCC1)C(C)(C)C as the entry.
4.3 ×10⁻⁶ cm/s

Tell me its Papp A→B at 90 min given N#C[C@@]1(c2ccc3c(N)ncnn23)O[C@H](COC(=O)CC2CCNCC2)[C@@H](O)[C@H]1O as the entry.
0.42 ×10⁻⁶ cm/s

Tell me its Papp A→B at 90 min given CCCCC(=O)Nc1ncnn2c([C@]3(C#N)O[C@H](COC(=O)[C@@H](N)C(C)C)[C@@H](O)[C@H]3O)ccc12 as the entry.
0.13 ×10⁻⁶ cm/s

Tell me its Papp A→B at 90 min given CC(C)CC(=O)O[C@H]1[C@@H](O)[C@](C#N)(c2ccc3c(N)ncnn23)O[C@@H]1COC(=O)CC1CCCCC1 as the entry.
56 ×10⁻⁶ cm/s

Tell me its Papp A→B at 90 min given CCCC(=O)Nc1ncnn2c([C@]3(C#N)O[C@H](COC(=O)[C@@H](N)C(C)C)[C@@H](OC(=O)CC)[C@H]3O)ccc12 as the entry.
3.1 ×10⁻⁶ cm/s

Tell me its Papp A→B at 90 min given N#C[C@@]1(c2ccc3c(N)ncnn23)O[C@H](COC(=O)CC2CCCC2)[C@@H](O)[C@H]1O as the entry.
2 ×10⁻⁶ cm/s

Tell me its Papp A→B at 90 min given CCC(=O)OC[C@H]1O[C@@](C#N)(c2ccc3c(NC(=O)[C@@H](N)C(C)C)ncnn23)[C@H](O)[C@@H]1O as the entry.
0.04 ×10⁻⁶ cm/s
